B1: LINE1-mini (parent)
chain: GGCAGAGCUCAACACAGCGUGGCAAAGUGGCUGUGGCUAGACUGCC

Variants of: B1
ASSAY TEXT: self-cleavage, relative activity (ratio to wild type); higher = more cleavage; in vitro, sequencing; the parent is a self-cleaving ribozyme
Quick rule for you: self-cleavage at 0.07 or higher means rule met, lower means rule not met.

VARIANT IDENTIFIER	CLASS
G30C C46G	rule met

Task: Determine whether measured self-cleavage meets or exceeds 0.07 for U32C A39U
Result: rule met

Task: Determine whether measured self-cleavage meets or exceeds 0.07 for C13G U34A
Result: rule not met

Task: Determine whether measured self-cleavage meets or exceeds 0.07 for A4U G29U
Result: rule met

Task: Determine whether measured self-cleavage meets or exceeds 0.07 for G30A G36U
Result: rule met

Task: Determine whether measured self-cleavage meets or exceeds 0.07 for A24G
Result: rule met
